# Test system: full length human vWF (SEQ ID NO 7)
# protocolSummary: dot blot KD determination and extent of binding, full length human vWF;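 note: dot blot binding of aptamers to full length human vWF across a protein titration, incubated 30 minutes at room temperature in 1x DPBS with BSA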
# experimentalParameters: Phase 4 and 5 modification; full length human vWF; read-out: KD
Oligonucleotides are written 5' to 3', each unit as a sugar letter and its base; * is a phosphorothioate linkage, no mark a phosphodiester; rarer units and linkages stand in square brackets, end groups in braces. Plain capitals give the bases only. [PEG] = polyethylene glycol spacer within the chain; [invdT] = inverted (3'-3') thymidine; d = 2'-deoxy (DNA); m = 2'-O-methyl
# label = label 1 if Kd < 6 nM else label 0

# substance, classification
data = [
    ("mCmGmGmCdCmG-s-TmGdCdGdGTmGmCdCmUdCdCmGmUmCmAmCmUmUmUmGmUdGdCdAmGmUmGmCmCmG-3T (mCmGmGmCdCmG*dTmGdCdGdGdTmGmCdCmUdCdCmGmUmCmAmCmUmUmUmGmUdGdCdAmGmUmGmCmCmG[invdT]; aptamer) [ARC1534]", "label 0"),
    ("mGmCmGmUdGdCdAmGmUmGmCmCPEGmGmGmCdCmG-s-TmGdCdGdGTmGmCdCmUdCdCmGmUmCmAmCmGmC-3T (mGmCmGmUdGdCdAmGmUmGmCmC[PEG]mGmGmCdCmG*dTmGdCdGdGdTmGmCdCmUdCdCmGmUmCmAmCmGmC[invdT]; aptamer) [ARC1528]", "label 1"),
    ("mCmCmGmGmCdCmG-s-TmGdCdGdGTmGmCdCmUdCdCmGmUmCmAmCmUmUmUmGmUdGdCdAmGmUmGmCmCmGmG-3T (mCmCmGmGmCdCmG*dTmGdCdGdGdTmGmCdCmUdCdCmGmUmCmAmCmUmUmUmGmUdGdCdAmGmUmGmCmCmGmG[invdT]; aptamer) [ARC1535]", "label 0"),
    ("dGdGdCdGTdGdCdAdGTdGdCdCTTdCdGdGdCdCdGTdGdCdGdGTdGdCdCTdCdCdGTdCdAdCdGdCdC-3T (DNA GGCGTGCAGTGCCTTCGGCCGTGCGGTGCCTCCGTCACGCC; DNA, [invdT] at 3' end, backbone and methylation of C not given here) [ARC1172, ARC1115 with 3'-inverted dT]", "label 1"),
    ("mCmGmUdGdCdAmGmUmGmCmCPEGmGmGmCdCmG-s-TmGdCdGdGTmGmCdCmUdCdCmGmUmCmAmCmG-3T (mCmGmUdGdCdAmGmUmGmCmC[PEG]mGmGmCdCmG*dTmGdCdGdGdTmGmCdCmUdCdCmGmUmCmAmCmG[invdT]; aptamer) [ARC1532]", "label 1"),
    ("mGmCmGmUdGdCdAmGmUmGmCmCmUmUmUmGmGmCdCmG-s-TmGdCdGdGTmGmCdCmUdCdCmGmUmCmAmCmGmC-3T (mGmCmGmUdGdCdAmGmUmGmCmCmUmUmUmGmGmCdCmG*dTmGdCdGdGdTmGmCdCmUdCdCmGmUmCmAmCmGmC[invdT]) [ARC1526]", "label 1"),
    ("mCmGmUdGdCdAmGmUmGmCmCPEGmGmGmCdCmG-s-TmGdCdGdGTmGmCdCmUdCdCmGmUdCmAmCmG-3T (mCmGmUdGdCdAmGmUmGmCmC[PEG]mGmGmCdCmG*dTmGdCdGdGdTmGmCdCmUdCdCmGmUdCmAmCmG[invdT]; aptamer) [ARC1531]", "label 1"),
    ("mGmCmGmUdGdCdAmGmUmGmCmCmUmUmCmGmGmCdCmG-s-TmGdCdGdGTmGmCdCmUdCdCmGmUdCmAmCmGmC-3T (GCGUGCAGUGCCUUCGGCCGTGCGGTGCCUCCGUCACGC; sugars from the 5' end mmmmdddmmmmmmmmmmmdmdmddddmmdmddmmdmmmm, [invdT] at 3' end, backbone not given here) [ARC1368]", "label 1"),
    ("mCmCmGmGmCdCmG-s-TmGdCdGdGTmGmCdCmUdCdCmGmUdCmAmCmGmUmUmCmCmGmUdGdCdAmGmUmGmCmCmGmG-3T (mCmCmGmGmCdCmG*dTmGdCdGdGdTmGmCdCmUdCdCmGmUdCmAmCmGmUmUmCmCmGmUdGdCdAmGmUmGmCmCmGmG[invdT]; aptamer) [ARC1546]", "label 0"),
    ("mGmCmGmUdGdCdAmGmUmGmCmCPEGmGmGmCdCmG-s-TmGdCdGdGTmGmCdCmUdCdCmGmUdCmAmCmGmC-3T (mGmCmGmUdGdCdAmGmUmGmCmC[PEG]mGmGmCdCmG*dTmGdCdGdGdTmGmCdCmUdCdCmGmUdCmAmCmGmC[invdT]) [ARC1527]", "label 1"),
    ("mGmCmGmUdGdCdAmGmUmGmCmCmUmUmCmGmGmCdCmG-s-TmGdCdGdGTmGmCdCmUdCdCmGmUmCmAmCmGmC-3T (mGmCmGmUdGdCdAmGmUmGmCmCmUmUmCmGmGmCdCmG*dTmGdCdGdGdTmGmCdCmUdCdCmGmUmCmAmCmGmC[invdT]) [ARC1524]", "label 1"),
]
